pIC50 values for IRAK4 (Homo sapiens (Human)) compiled from several publications are listed below.
Answer as the number alone; pIC50 is minus log10 of concentration in mol/L.

Illustrative cases are given below, each with its answer.
"CC(C)(F)[C@H](F)CNC(=O)c1cnc(-c2cnc3cc(C#N)cnn23)cc1Nc1cnn(CC(F)F)c1" has a reported pIC50 of 8.70

"COc1cc2nn(C3CCN(CCOCCNC(=O)c4ccc(OC)c(N5CCC(=O)NC5=O)c4)CC3)cc2cc1NC(=O)c1cccc(C(F)(F)F)n1" has a reported pIC50 of 8.04

Query compound follows.
"CC(C)Nc1cc(-n2ncc3cc(C#N)cnc32)ncc1-c1cn(CCc2ccncc2)nn1" has a reported pIC50 of 9.00

----------
pIC50 values for IRAK4 (Homo sapiens (Human), UniProt Q9NWZ3) compiled from several publications are listed below.
Answer as the number alone; pIC50 is minus log10 of concentration in mol/L.

"COc1ccc(C(=O)N2CCC(OCCN3CCC(n4cc5cc(NC(=O)c6cccc(C(F)(F)F)n6)c(C(C)(C)O)cc5n4)CC3)CC2)cc1N1CCC(=O)NC1=O" has a reported pIC50 of 8.07

"CC(C)Nc1cc(-n2cnc3cc(C#N)cnc32)ncc1-c1cn(CCCF)nn1" has a reported pIC50 of 8.10

CC(C)(O)[C@H](F)CNC(=O)c1cnc(-c2cnc3cc(Cl)cnn23)cc1NC1CC(F)C1 (some centres unmarked) has a reported pIC50 of 8.40

"CC(C)Nc1cc(-n2ncc3cc(C#N)cnc32)ncc1-c1cn(CCS(C)(=O)=O)nn1" has a reported pIC50 of 8.52

"COc1cccc(Nc2ncc(-c3nc4ccccc4s3)c(N[C@@H]3C[C@H](CO)[C@@H](O)[C@H]3O)n2)c1" has a reported pIC50 of 6.86

CC(F)Cc1cn(-c2cnc(-n3cnc4cnc(N)nc43)cc2NC(C)C)nn1 (single isomer, unassigned) has a reported pIC50 of 7.55

New cases:
CC(C)(O)[C@H](F)CNC(=O)c1cnc(Nc2ccc3ncsc3c2)cc1N[C@H]1CCC(CCO)C1 (some centres unmarked) has a reported pIC50 of 8.17

"C=CC(=O)N1CC2(CC(n3cc(-c4ccc(NC(=O)c5cccc(-c6cnoc6)n5)nc4)nn3)C2)C1" has a reported pIC50 of 5.48

"CC(C)Nc1cc(Nc2ccc3ncsc3c2)ncc1C(=O)NCC[C@@H](C)NC(=O)N1CCCC1" has a reported pIC50 of 8.16

"Cc1cn(C)c(-c2ccc3ncnc(N[C@H]4CC[C@H](N5CCOCC5)CC4)c3c2)n1" has a reported pIC50 of 5.92

----------
IC50 values for IRAK4 (Homo sapiens (Human), UniProt Q9NWZ3) compiled from several publications are listed below.

Cn1cc(-c2cccc(-c3ncc(-c4cnn(C)c4)c(N[C@@H]4CNC[C@H]4O)n3)c2)cn1 (racemic) has a reported IC50 of < 100 nM

"CC(C)(F)CNc1cc(Nc2ccn3ncc(F)c3n2)ncc1C(=O)NC[C@@H](F)C(C)(C)O" has a reported IC50 of 3.1 nM

"Cn1cc(Nc2nc(O[C@H]3CC[C@H](N4CCOCC4)CC3)c3c4c(sc3n2)CCC4)cn1" has a reported IC50 of ≤ 5000 nM

"CNC(=O)CCCCc1cn(-c2ccccc2)c(NC(=O)c2cccc(-c3cn[nH]c3)c2)n1" has a reported IC50 of < 50 nM

"CC(C)(O)[C@H](F)CNC(=O)c1cnc(Nc2ccn3ncc(F)c3n2)cc1NC1CC(F)(F)C1" has a reported IC50 of 3.3 nM

"Cc1cc(Nc2nc(O[C@H]3CC[C@H](N4CCOCC4)CC3)c3sccc3n2)sn1" has a reported IC50 of 100 to 1000 nM

"CC(=O)N[C@H]1CC[C@H](NC(=O)c2cnc3sc(-c4cncs4)cc3c2NC(C)C)CC1" has a reported IC50 of 3.7 nM

----------
IC50 values for IRAK4 (Homo sapiens (Human)) compiled from several publications are listed below.

Illustrative cases are given below, each with its answer.
"CC(C)Nc1cc(Nc2ccc3ncsc3c2)ncc1C(=O)NCC[C@@H](C)NC(=O)CC1CCOCC1" has a reported IC50 of 3.4 nM

"CN1CCN(C(=O)CCCCCc2cn(-c3ccccc3)c(NC(=O)c3cccc(-c4cnn(C)c4)c3)n2)CC1" has a reported IC50 of < 50 nM

CC(C)Nc1c(C(=O)NC2CCCOC2)cnc2c1Oc1cc(C#N)ccc1O2 (centres unmarked) has a reported IC50 of 92 nM

New cases:
"Cn1cc(-n2ccc3nc(Nc4cnn(CCO)c4)nc(O[C@H]4CCOC4)c32)cn1" has a reported IC50 of ≤ 100 nM

"Cc1ncc(-c2ccc3ncnc(N[C@H]4CC[C@H](N5CCOCC5)CC4)c3c2)cn1" has a reported IC50 of 18 nM

"C[C@@H]1CN([C@H]2CC[C@H](Nc3ncnc4ccc(-c5cnc(F)c(N)c5)cc34)CC2)C[C@H](C)O1" has a reported IC50 of 1 nM

"Cn1cc(-c2cccc(-c3ncc(-c4cnn(C)c4)c(NC[C@H]4CC[C@H](O)CC4)n3)c2)cn1" has a reported IC50 of < 100 nM

"CNC(=O)CCCCCc1cn(-c2ccccc2)c(NC(=O)c2cccc(-c3cn[nH]c3)c2)n1" has a reported IC50 of < 50 nM

----------
log10(IC50) values for IRAK4 (Homo sapiens (Human), UniProt Q9NWZ3) compiled from several publications are listed below.
Plainly stated, the numbers are log10 of IC50 given in nM.

Illustrative cases are given below, each with its answer.
CC(C)Oc1cc2nc([C@]34CC[C@](CF)(C3)OC4)cn2cc1C(=O)Nc1cccn(C2CC2)c1=O (single isomer, unassigned) has a reported log10(IC50) of -0.52

CC(C)(O)[C@H](F)CNC(=O)c1cnc(Nc2ccn3nccc3c2)cc1NC1CC(F)C1 (stereo partly drawn) has a reported log10(IC50) of 0.85

"CCNc1c(C(=O)NCCC(C)(C)O)cnc2ccc(-c3cn[nH]c3)cc12" has a reported log10(IC50) of 1.69

"CNC(=O)[C@H]1CC[C@H](NC(=O)c2cnc(Nc3cnc4[nH]ccc4c3)cc2NC(C)C)CC1" has a reported log10(IC50) of 1.08

CC(C)Nc1cc(Nc2ccc3ncsc3c2)ncc1C(=O)NC1CCCC(CO)C1 (stereo not drawn) has a reported log10(IC50) of 0.97

New cases:
"CCn1cc(NC(=O)c2cnn3ccc(N[C@@H]4CCCC[C@@H]4N)nc23)c(C(N)=O)n1" has a reported log10(IC50) of -0.22

"CC(C)(O)[C@H](F)CNC(=O)c1cnc(Nc2cc3scnc3cc2F)cc1NC1CCOCC1" has a reported log10(IC50) of 0.40

"CC(C)Nc1cc(-c2cnn3cc(Cl)cnc23)ncc1C(=O)NCCc1ccc(S(N)(=O)=O)cc1" has a reported log10(IC50) of 0.90

"CC(C)Nc1cc(-n2ncc3cc(C#N)cnc32)ncc1-n1cc(CS(=O)(=O)c2ccccc2)nn1" has a reported log10(IC50) of 0.95

"CC(C)Nc1cc(-n2cnc3cc(C#N)cnc32)ncc1-c1cn(CCc2ccccc2)nn1" has a reported log10(IC50) of 0.48

"CC(C)(O)CCc1cn(-c2cnc(-c3cnn4cc(C#N)cnc34)cc2NC2CC(F)(F)C2)nn1" has a reported log10(IC50) of 1.15

"C[C@H](CO)Nc1c(C(=O)NCCC#N)cnc2sc(-c3ccccc3)nc12" has a reported log10(IC50) of 2.64

"CC(C)(O)[C@H](F)CNC(=O)c1cnc(-c2cnc3cc(C#N)cnn23)cc1Nc1cnn(C(F)F)c1" has a reported log10(IC50) of 0.85

"COc1ccc(C(=O)N2CCC3(CCN(CCN4CCC(n5cc6cc(NC(=O)c7cccc(C(F)(F)F)n7)c(C(C)(C)O)cc6n5)CC4)CC3)CC2)cc1N1CCC(=O)NC1=O" has a reported log10(IC50) of 0.81

"CC(C)Nc1cc(-n2ncc3cc(C#N)c(N)nc32)ncc1-c1cn(CCCF)nn1" has a reported log10(IC50) of 1.15

"CC(C)(O)c1cn2cc(NC(=O)c3coc(-c4ccnc(N)c4F)n3)c(-c3ccccc3)cc2n1" has a reported log10(IC50) of -1.00

CC(C)Nc1cc(-n2cnc3cc(C#N)cnc32)ncc1-c1cn([C@@H]2CCC[C@H]2O)nn1 (single isomer, unassigned) has a reported log10(IC50) of 0.60

----------
IC50 values for IRAK4 (Homo sapiens (Human), UniProt Q9NWZ3) compiled from several publications are listed below.
Record the value in nM, omitting the unit from your answer.

Measured IC50 for this entry Cn1cc(NC(=O)c2ccc3ccc(N4C[C@@H]5CNC[C@H]4C5)nn23)c(C(F)F)n1 (single isomer, unassigned) on IRAK4 (Homo sapiens (Human), UniProt Q9NWZ3): 5

Measured IC50 for this entry "CC(C)Nc1cc(Nc2ccc3cc(C#N)ccc3n2)ncc1C(=O)NC[C@@H](F)C(C)(C)O" on IRAK4 (Homo sapiens (Human), UniProt Q9NWZ3): 8.4

Measured IC50 for this entry "CN(C)[C@H]1CC[C@H](Nc2ncnc3ccc(-c4cnccc4C#N)cc23)CC1" on IRAK4 (Homo sapiens (Human), UniProt Q9NWZ3): 54

Measured IC50 for this entry "CC(C)Nc1cc(-n2ncc3cc(C#N)cnc32)ncc1-c1cc([C@@H]2COCCN2)on1" on IRAK4 (Homo sapiens (Human), UniProt Q9NWZ3): 4

Measured IC50 for this entry "CC(C)Nc1cc(-n2ncc3cc(C#N)cnc32)ncc1-c1cn(C2CN(C)C2)nn1" on IRAK4 (Homo sapiens (Human), UniProt Q9NWZ3): 2

Query molecule follows.
Measured IC50 for this entry "CCCc1cn(-c2cnc(-n3ncc4cc(C#N)cnc43)cc2NC2CCOCC2)nn1" on IRAK4 (Homo sapiens (Human), UniProt Q9NWZ3): 7
